Target: MOZ-KAT6A (Homo sapiens, UniProt Q92794, A567V)
Sequence (Q92794 with tags, fused parts or gaps A567V): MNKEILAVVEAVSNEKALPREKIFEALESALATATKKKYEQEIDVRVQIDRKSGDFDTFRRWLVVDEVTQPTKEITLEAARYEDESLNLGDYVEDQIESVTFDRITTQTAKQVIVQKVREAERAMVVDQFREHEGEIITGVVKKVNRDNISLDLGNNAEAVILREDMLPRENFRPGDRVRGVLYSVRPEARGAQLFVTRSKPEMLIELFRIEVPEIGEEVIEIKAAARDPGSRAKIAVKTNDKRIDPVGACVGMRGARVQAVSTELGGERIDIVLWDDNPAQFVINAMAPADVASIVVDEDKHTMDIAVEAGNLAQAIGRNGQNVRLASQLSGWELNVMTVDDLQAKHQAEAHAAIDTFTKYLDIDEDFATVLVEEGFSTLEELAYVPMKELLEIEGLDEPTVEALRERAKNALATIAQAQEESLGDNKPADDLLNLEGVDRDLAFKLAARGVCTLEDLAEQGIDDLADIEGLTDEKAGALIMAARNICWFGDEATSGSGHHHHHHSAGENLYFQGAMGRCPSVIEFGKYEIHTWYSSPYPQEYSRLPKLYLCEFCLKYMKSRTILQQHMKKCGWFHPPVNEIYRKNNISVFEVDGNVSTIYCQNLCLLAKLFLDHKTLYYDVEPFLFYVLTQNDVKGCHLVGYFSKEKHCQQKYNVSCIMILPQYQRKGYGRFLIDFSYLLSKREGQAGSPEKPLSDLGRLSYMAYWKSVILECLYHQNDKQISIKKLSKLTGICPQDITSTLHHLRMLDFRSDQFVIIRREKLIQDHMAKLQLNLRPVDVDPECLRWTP
Assay: Acetyltransferase biochemical assay (AlphaScreen), KAT6A
In this section we review reported pIC50 values for a set of compounds.
Lab note — pIC50 values are minus log10 of concentrations in M.

For orientation, consider the following solved cases.
[
  {
    "GIVEN SMILES": "CCc1ccc(OC)c(S(=O)(=O)Nc2noc3ccc(CC)c(Cl)c23)c1",
    "pIC50": 6.52
  },
  {
    "GIVEN SMILES": "O=S(=O)(Nc1noc2cccc(Cl)c12)c1cccc2cccnc12",
    "pIC50": 4.57
  },
  {
    "GIVEN SMILES": "CCc1ccc(OC)c(S(=O)(=O)Nc2noc3c(-c4cncnc4)cccc23)c1",
    "pIC50": 5.03
  },
  {
    "GIVEN SMILES": "COc1cccc(OC)c1S(=O)(=O)Nc1noc2cc(-c3ccccn3)cc(OC)c12",
    "pIC50": 6.82
  },
  {
    "GIVEN SMILES": "CCc1ccc(OC)c(S(=O)(=O)Nc2noc3cccc(C4CCCCC4)c23)c1",
    "pIC50": 5.83
  }
]

// lookup pIC50 for COc1cccc2onc(NS(=O)(=O)c3ccccc3)c12
5.32

// lookup pIC50 for O=S(=O)(Nc1noc2cccc(Cl)c12)c1cc(Br)cc2c1OCC2
5.04

// lookup pIC50 for COCc1cc2onc(NS(=O)(=O)c3c(OC)cccc3OC)c2cc1C
7.21

// lookup pIC50 for COc1ccc(S(=O)(=O)Nc2noc3cc(Br)c(C)cc23)c(OC)c1
5.73

// lookup pIC50 for COc1cc(OC)c(S(=O)(=O)Nc2noc3cccc(OC)c23)c(OC)c1
5.41
